The origin of these recorded values is paper PMC5240567.

- assayed_target: HOXB1HD;PBX1HD (;, UniProt P14653;P40424 171-266;227-317, |)
- Sequence (P14653 171-266, chain 1 of 2): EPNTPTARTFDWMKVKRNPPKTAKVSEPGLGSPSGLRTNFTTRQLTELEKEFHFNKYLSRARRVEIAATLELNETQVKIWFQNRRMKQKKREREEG
- Sequence (P40424 227-317, chain 2 of 2): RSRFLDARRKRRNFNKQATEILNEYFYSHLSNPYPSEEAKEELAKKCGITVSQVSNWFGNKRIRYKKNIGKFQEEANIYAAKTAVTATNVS
- experimental_protocol: fluorescence polarization; HOXB1HD titrated into preformed PBX1HD:PH; FP and EMSA: 20 mM Na/K phosphate pH 7.2, 150 mM NaCl, 5% glycerol, 1 mM TCEP, room temperature (FP 9 nM DNA, 30 min; EMSA gel run at 4 C in 0.5x TBE); NMR: 20
- experimental_setup: protein: recombinant;recombinant; tags: GST cleaved (pGEX-6P);GST cleaved (pGEX-6P); copies: 1;1; label: 5' 6-FAM (FP); unlabeled in EMSA
pKd: −log10 of the molar value.
measured_quantity: pKd

>>> numeric_value("PH (dsDNA) DNA 1: AGAGTGATTGATAAGG DNA 2: CCTTATCAATCACTCT")
6.41
